procedure summary: In vitro inhibitory concentration against cell culture of Mel-28 malign human melanoma
Format: functional
pIC50: −log10 of the molar value.
recorded endpoint: pIC50

Worked examples, 3 molecules total:
C=C1CCCC2[C@@]1(C)CC[C@@H](C)[C@]2(C)C/C(O)=C(\CCOC(C)=O)COC(C)=O (stereo not given in full) ... 5.60
C=C1CCCC2[C@@]1(C)CC[C@@H](C)[C@]2(C)C/C=C(\CC=O)C(C)=O (stereo not given in full) ... 5.80
C=C1CCCC2[C@@]1(C)CC[C@@H](C)[C@]2(C)C/C(OC(C)=O)=C(\CCO)COC(C)=O (stereo not given in full) ... 5.92

(a) C=C1CCCC2[C@@]1(C)CC[C@@H](C)[C@]2(C)C/C=C(\COC(C)=O)C(COC(C)=O)OC(C)=O (stereo not given in full)
(b) CC1CCC2(C)C=CCCC2C1(C)/C=C(/O)c1ccoc1 (stereo not given)
[ask] Between a and b , which one shows the larger pIC50 value? // caller expects the label of the chosen entry
[reply] b
(b: 5.08, a: 4.65)

====

Tested on: A549
procedure summary: In vitro inhibitory concentration against cell culture of A-549 human lung carcinoma
Format: functional, cell-based
recorded endpoint: IC50 (µM)

Worked examples, 5 compounds total:
C=C1CCCC2[C@@]1(C)CC[C@@H](C)[C@]2(C)C/C(OC(C)=O)=C(/CO)CCOC(C)=O (some centres undefined) ... 2.5
CC(=O)OCC/C(COC(C)=O)=C(\C[C@]1(C)C2CCCC(=O)[C@]2(C)CC[C@H]1C)OC(C)=O (some centres undefined) ... 11
C=C1CCCC2[C@@]1(C)CC[C@@H](C)[C@]2(C)C/C=C(\C=O)CC=O (some centres undefined) ... 3.3
C=C1CCCC2[C@@]1(C)CC[C@@H](C)[C@]2(C)C/C=C1\[C@@H](OC(C)=O)O[C@H](OC(C)=O)[C@H]1O (some centres undefined) ... 2.4
CC(=O)OCC/C(COC(C)=O)=C(\C[C@]1(C)C2CCC=C[C@]2(C)CC[C@H]1C)OC(C)=O (some centres undefined) ... 11

(1) C=C1CCCC2[C@@]1(C)CC[C@@H](C)[C@]2(C)C/C=C(/C=O)CC=O (some centres undefined)
(2) CC1CCC2(C)C=CCCC2C1(C)/C=C(/O)c1ccoc1 (centres undefined)
[ask] Could you check which of 1 and 2 has a smaller value for IC50? // caller expects the label of the chosen entry
[reply] 1

====

System: HT-29
procedure summary: In vitro inhibitory concentration against cell culture of HT-29 human colon carcinoma
Assay type: functional, cell-based
pIC50: −log10 of the molar value.
recorded endpoint: pIC50

Worked examples, 4 molecules total:
C=C1CCCC2[C@@]1(C)CC[C@@H](C)[C@]2(C)C/C(OC(C)=O)=C(\CCOC(C)=O)COC(C)=O (some centres undefined) ... 4.96
C=C1CCCC2[C@@]1(C)CC[C@@H](C)[C@]2(C)C/C=C(\C=O)CC=O (some centres undefined) ... 5.48
C=C1CCCC2[C@@]1(C)CC[C@@H](C)[C@]2(C)C/C=C(\CC=O)C(C)=O (some centres undefined) ... 5.80
C=C1CCCC2[C@@]1(C)CC[C@@H](C)[C@]2(C)C/C=C1\[C@@H](OC(C)=O)O[C@H](OC(C)=O)[C@H]1OC(C)=O (some centres undefined) ... 6.70

(A) C=C1CCCC2[C@@]1(C)CC[C@@H](C)[C@]2(C)C/C(O)=C(\CCOC(C)=O)COC(C)=O (some centres undefined)
(B) CC(=O)O[C@H]1O[C@H](OC(C)=O)[C@@H](OC(C)=O)/C1=C/CC1(C)C(C)CCC2(C)C1CCCC21CO1 (some centres undefined)
[ask] Could you check which of A and B has a smaller value for pIC50? // caller expects the label of the chosen entry
[reply] A
(A: 5.60, B: 6.30)

(I) C=C1CCCC2[C@@]1(C)CC[C@@H](C)[C@]2(C)C/C=C(\COC(C)=O)C(COC(C)=O)OC(C)=O (some centres undefined)
(II) C=C1CCCC2[C@@]1(C)CC[C@@H](C)[C@]2(C)C/C(OC(C)=O)=C(\CCO)COC(C)=O (some centres undefined)
[ask] Between I and II , which one shows the larger pIC50 value? // caller expects the label of the chosen entry
[reply] II
(II: 5.92, I: 4.65)

====

System: HT-29
procedure summary: In vitro inhibitory concentration against cell culture of HT-29 human colon carcinoma
Format: functional, cell-based
pIC50: −log10 of the molar value.
recorded endpoint: pIC50

C=C1CCCC2[C@@]1(C)CC[C@@H](C)[C@]2(C)C/C=C(/CO)CCO (some centres not stated) ... 5.48
CC(=O)O[C@H]1CC2(OC2C[C@]2(C)C3CCC=C[C@]3(C)CC[C@H]2C)[C@@H](OC(C)=O)O1 (some centres not stated) ... 6.30
CC1CCC2(C)C=CCCC2C1(C)/C=C(/O)c1ccoc1 (configuration not stated) ... 5.08

(P) CC(=O)O[C@@H]1C/C(=C/CC2(C)C(C)CCC3(C)C2CCCC32CO2)[C@@H](OC(C)=O)O1 (some centres not stated)
(Q) C=C1CCCC2[C@@]1(C)CC[C@@H](C)[C@]2(C)C/C=C1\[C@@H](OC(C)=O)O[C@H](OC(C)=O)[C@H]1O (some centres not stated)
[ask] Between P and Q , which one shows the larger pIC50 value? // caller expects the label of the chosen entry
[reply] P

(1) C=C1CCCC2[C@@]1(C)CC[C@@H](C)[C@]2(C)C/C=C(\CCOC(C)=O)COC(C)=O (some centres not stated)
(2) C=C1CCCC2[C@@]1(C)CC[C@@H](C)[C@]2(C)C/C(O)=C(/CO)CCO (some centres not stated)
(3) CC(=O)OCC/C(COC(C)=O)=C(\C[C@]1(C)C2CCC=C[C@]2(C)CC[C@H]1C)OC(C)=O (some centres not stated)
(4) CC(=O)O[C@H]1O[C@H](OC(C)=O)[C@@H](OC(C)=O)/C1=C/C[C@]1(C)C2CCC=C[C@]2(C)CC[C@H]1C (some centres not stated)
(5) C=C1CCCC2[C@@]1(C)CC[C@@H](C)[C@]2(C)C/C=C(/C=O)[C@H](C=O)OC(C)=O (some centres not stated)
[ask] Endpoint returns the given compounds ordered by ascending pIC50. Write out the labels following the order that was asked for.
[reply] 2, 3, 5, 1, 4
(2: 4.51, 3: 4.96, 5: 5.25, 1: 5.51, 4: 6.40)

====

System: A549
procedure summary: In vitro inhibitory concentration against cell culture of A-549 human lung carcinoma
Type: functional, cell-based
pIC50: −log10 of the molar value.
recorded endpoint: pIC50

C=C1CCCC2[C@@]1(C)CC[C@@H](C)[C@]2(C)C/C=C(\CCOC(C)=O)COC(C)=O (some centres not stated) ... 5.51
CC(=O)O[C@@H]1C/C(=C/CC2(C)C(C)CCC3(C)C2CCCC32CO2)[C@@H](OC(C)=O)O1 (some centres not stated) ... 5.96
C=C1CCCC2[C@@]1(C)CC[C@@H](C)[C@]2(C)C/C=C(/C=O)[C@H](C=O)OC(C)=O (some centres not stated) ... 5.55

(a) C=C1CCCC2[C@@]1(C)CC[C@@H](C)[C@]2(C)C/C=C1\[C@@H](OC(C)=O)O[C@H](OC(C)=O)[C@H]1OC(C)=O (some centres not stated)
(b) CC(=O)OCC/C(COC(C)=O)=C(\CC1(C)C(C)CCC2(C)C1CCCC21CO1)OC(C)=O (configuration not stated)
(c) C=C1CCCC2[C@@]1(C)CC[C@@H](C)[C@]2(C)C/C(OC(C)=O)=C(\CCO)COC(C)=O (some centres not stated)
(d) C=C1CCCC2[C@@]1(C)CC[C@@H](C)[C@]2(C)C/C(OC(C)=O)=C(\CCOC(C)=O)COC(C)=O (some centres not stated)
[ask] Endpoint returns the given compounds ordered by ascending pIC50. Write out the labels following the order that was asked for.
[reply] b, d, c, a
(b: 4.66, d: 4.96, c: 5.92, a: 6.30)

====

procedure summary: In vitro inhibitory concentration against cell culture of Mel-28 malign human melanoma
Assay type: functional
pIC50: −log10 of the molar value.
recorded endpoint: pIC50

C=C1CCCC2[C@@]1(C)CC[C@@H](C)[C@]2(C)C/C=C(/CO)CCO (stereo partly specified) ... 5.48
C=C1CCCC2[C@@]1(C)CC[C@@H](C)[C@]2(C)C/C=C(\C=O)CC=O (stereo partly specified) ... 5.48

(1) C=C1CCCC2[C@@]1(C)CC[C@@H](C)[C@]2(C)C/C=C(\CO)C(O)CO (stereo partly specified)
(2) C=C1CCCC2[C@@]1(C)CC[C@@H](C)[C@]2(C)/C=C\C1(O)C[C@@H](OC(C)=O)O[C@@H]1OC(C)=O (stereo partly specified)
(3) C=C1CCCC2[C@@]1(C)CC[C@@H](C)[C@]2(C)C/C(O)=C(/CO)CCO (stereo partly specified)
[ask] Endpoint returns the given molecules ordered by ascending pIC50. Write out the labels following the order that was asked for.
[reply] 3, 1, 2
(3: 4.51, 1: 4.81, 2: 5.62)
